target_entity: UniProtKB P04150
Sequence (whole entry): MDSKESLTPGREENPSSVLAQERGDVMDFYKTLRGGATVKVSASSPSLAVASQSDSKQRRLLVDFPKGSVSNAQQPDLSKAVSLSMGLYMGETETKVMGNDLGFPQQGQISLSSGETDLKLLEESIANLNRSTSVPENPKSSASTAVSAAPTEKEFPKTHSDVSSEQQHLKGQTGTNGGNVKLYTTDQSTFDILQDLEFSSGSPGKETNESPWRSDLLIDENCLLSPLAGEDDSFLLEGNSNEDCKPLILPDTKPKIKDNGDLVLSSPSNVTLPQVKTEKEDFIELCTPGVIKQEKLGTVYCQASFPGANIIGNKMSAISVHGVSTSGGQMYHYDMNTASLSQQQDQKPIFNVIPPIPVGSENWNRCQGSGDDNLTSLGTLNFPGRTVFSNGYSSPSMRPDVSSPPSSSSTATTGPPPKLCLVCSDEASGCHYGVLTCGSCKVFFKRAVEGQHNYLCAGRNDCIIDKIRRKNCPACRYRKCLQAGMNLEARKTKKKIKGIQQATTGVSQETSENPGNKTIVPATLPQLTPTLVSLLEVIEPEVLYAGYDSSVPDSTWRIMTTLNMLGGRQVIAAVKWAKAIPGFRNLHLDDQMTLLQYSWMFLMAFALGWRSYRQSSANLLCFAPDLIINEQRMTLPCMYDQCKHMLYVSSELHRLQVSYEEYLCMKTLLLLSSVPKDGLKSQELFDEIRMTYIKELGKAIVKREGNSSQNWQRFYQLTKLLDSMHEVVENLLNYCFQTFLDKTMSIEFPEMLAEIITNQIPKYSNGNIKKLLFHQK
method: Transrepression activity at glucocorticoid receptor in human LPS and TPA-stimulated U937 cells assessed as effect on glucocorticoid-induced TNFalpha repression by beta lactamase reporter gene assay relative to dexamethasone
Assay type: cell-based
measurement_context: U-937
readout_name: Emax (%)

Examples with answers:
1. C=CCNC(=O)c1ccccc1CC[C@]1(O)CCC2=Cc3c(cnn3-c3ccc(F)cc3)C[C@@]21C    62
2. C[C@]12Cc3cnn(-c4ccc(F)cc4)c3C=C1CC[C@@]2(O)CCc1cccc(F)c1C(=O)NC1(CO)CC1    96
3. C[C@]12Cc3cnn(-c4ccc(F)cc4)c3C=C1CC[C@@]2(O)CCc1ccccc1C(N)=O    82

[I] CC(C)(CO)NC(=O)c1ccccc1CC[C@]1(O)CCC2=Cc3c(cnn3-c3ccc(F)cc3)C[C@@]21C
[II] CCNC(=O)c1ccccc1CC[C@]1(O)CCC2=Cc3c(cnn3-c3ccc(F)cc3)C(O)[C@@]21C (stereo partly drawn)
Enquiry: // select label with min value of measured Emax from [ I , II ] Field: selected label. Fill in the label of the entry you choose.
Return: II

###

method: Drug uptake in oxazolone-induced Sprague-Dawley rat chronic dermatitis model at 15 mg/kg, po
Assay type: ADME, organism-based
Set-up: dose 15 mg/kg, route oral
measurement_context: in vivo, read-out: Drug uptake
readout_name: AUC (µM·h)
Numbers only; they are read as µM·h.

Enquiry: Entry CC1(NC(=O)c2c(F)cccc2CC[C@]2(O)CCC3=Cc4c(cnn4-c4ccc(F)cc4)C[C@@]32C)CC1 : reported AUC = ?
Return: 64

###

method: Drug uptake in oxazolone-induced Sprague-Dawley rat chronic dermatitis model at 25 mg/kg, po
Assay type: ADME, organism-based
Design: dose 25 mg/kg, route oral
measurement_context: in vivo, read-out: Drug uptake
readout_name: AUC (µM·h)
Give the number; µM·h is assumed, so skip it.

Enquiry: Reported AUC for C[C@]12Cc3cnn(-c4ccc(F)cc4)c3C=C1CC[C@@]2(O)CCc1ccccc1C(N)=O : what is it?
Return: 199

###

target_entity: Glucocorticoid receptor (Homo sapiens) (UniProt P04150)
method: Transactivation activity at GR-mediated modulation of MMTV promoter activity in human A549 cells transfected with luciferase gene linked to MMTV promoter after 16 hrs by luciferase reporter gene assay
Type: cell-based
readout_name: IP (nM)

Use the examples below as a reference point.
1) CCNC(=O)c1ccccc1CC[C@]1(O)CCC2=Cc3c(cnn3-c3ccc(F)cc3)C(O)[C@@]21C (some centres not stated)    1560
2) CC(C)NC(=O)c1ccccc1CC[C@]1(O)CCC2=Cc3c(cnn3-c3ccc(F)cc3)C[C@@]21C    60
3) C=CCNC(=O)c1ccccc1CC[C@]1(O)CCC2=Cc3c(cnn3-c3ccc(F)cc3)C[C@@]21C    62
4) C[C@]12Cc3cnn(-c4ccc(F)cc4)c3C=C1CC[C@@]2(O)CCc1cc(F)ccc1C(N)=O    36
5) C[C@]12Cc3cnn(-c4ccc(F)cc4)c3C=C1CC[C@@]2(O)CCc1cccc(F)c1C(=O)NC1(CO)CC1    23

[A] CCNC(=O)c1ccccc1CC[C@]1(O)CCC2=Cc3c(cnn3-c3ccc(F)cc3)C[C@@]21C
[B] CNC(=O)c1ccccc1CC[C@]1(O)CCC2=Cc3c(cnn3-c3ccc(F)cc3)C[C@@]21C
[C] C[C@]12Cc3cnn(-c4ccc(F)cc4)c3C=C1CC[C@@]2(O)CCc1cccc(F)c1C(N)=O
[D] C=C(C)CNC(=O)c1c(F)cccc1CC[C@]1(O)CCC2=Cc3c(cnn3-c3ccc(F)cc3)C[C@@]21C
[E] CCCNC(=O)c1c(F)cccc1CC[C@]1(O)CCC2=Cc3c(cnn3-c3ccc(F)cc3)C[C@@]21C
Enquiry: List the 5 entries from lowest IP to highest IP value. Answer format: the labels, ordered as requested.
Return: C, E, A, D, B
(C: 9 nM, E: 26 nM, A: 39 nM, D: 95 nM, B: 193 nM)

[P] CC1(NC(=O)c2c(F)cccc2CC[C@]2(O)CCC3=Cc4c(cnn4-c4ccc(F)cc4)C[C@@]32C)CC1
[Q] CCCNC(=O)c1ccccc1CC[C@]1(O)CCC2=Cc3c(cnn3-c3ccc(F)cc3)C[C@@]21C
[R] C[C@]12Cc3cnn(-c4ccc(F)cc4)c3C=C1CC[C@@]2(O)CCc1ccc(F)cc1C(N)=O
[S] C[C@]12Cc3cnn(-c4ccc(F)cc4)c3C=C1CC[C@@]2(O)CCc1c(F)cccc1C(N)=O
Enquiry: Arrange the 4 entries by IP so the values rise. As an answer, provide the labels arranged in the order called for.
Return: S, P, Q, R
(S: 6 nM, P: 32 nM, Q: 81 nM, R: 186 nM)

[P] CC(C)(CO)NC(=O)c1ccccc1CC[C@]1(O)CCC2=Cc3c(cnn3-c3ccc(F)cc3)C[C@@]21C
[Q] CC(C)(C)NC(=O)c1ccccc1CC[C@]1(O)CCC2=Cc3c(cnn3-c3ccc(F)cc3)C[C@@]21C
Enquiry: Could you tell me which of these two has the smaller IP figure? First: P Second: Q # reply format: chosen label
Return: P
(P: 33 nM, Q: 212 nM)

###

target_entity: UniProt:P04150
Sequence (whole entry): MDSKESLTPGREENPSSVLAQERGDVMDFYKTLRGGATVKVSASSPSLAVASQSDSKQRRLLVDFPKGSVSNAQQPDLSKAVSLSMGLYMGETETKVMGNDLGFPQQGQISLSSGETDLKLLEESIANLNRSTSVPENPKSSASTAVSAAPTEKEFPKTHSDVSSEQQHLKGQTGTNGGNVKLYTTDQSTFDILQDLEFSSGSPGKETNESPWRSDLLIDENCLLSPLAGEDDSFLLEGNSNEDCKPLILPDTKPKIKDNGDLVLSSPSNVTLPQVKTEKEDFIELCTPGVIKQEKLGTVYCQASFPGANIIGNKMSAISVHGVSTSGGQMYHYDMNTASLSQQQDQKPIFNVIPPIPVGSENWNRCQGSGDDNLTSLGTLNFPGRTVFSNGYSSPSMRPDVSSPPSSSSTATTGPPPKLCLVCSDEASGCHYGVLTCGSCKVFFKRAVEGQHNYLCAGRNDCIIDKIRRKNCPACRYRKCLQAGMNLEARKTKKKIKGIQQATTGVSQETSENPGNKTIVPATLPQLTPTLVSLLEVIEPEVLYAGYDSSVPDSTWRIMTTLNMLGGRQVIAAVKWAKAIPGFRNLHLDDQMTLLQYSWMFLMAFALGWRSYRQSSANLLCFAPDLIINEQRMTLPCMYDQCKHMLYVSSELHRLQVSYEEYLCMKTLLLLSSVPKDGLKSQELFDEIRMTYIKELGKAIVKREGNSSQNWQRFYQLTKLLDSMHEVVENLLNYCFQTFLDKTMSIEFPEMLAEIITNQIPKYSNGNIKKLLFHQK
method: Transactivation activity at GR-mediated modulation of MMTV promoter activity in human A549 cells transfected with luciferase gene linked to MMTV promoter after 16 hrs by luciferase reporter gene assay relative to dexamethasone
Format: cell-based
readout_name: Emax (%)

[A] C[C@]12Cc3cnn(-c4ccc(F)cc4)c3C=C1CC[C@@]2(O)CCc1ccc(F)cc1C(N)=O
[B] C=C(C)CNC(=O)c1c(F)cccc1CC[C@]1(O)CCC2=Cc3c(cnn3-c3ccc(F)cc3)C[C@@]21C
Enquiry: Of the pair A and B , name the member with the lesser recorded Emax. Refer to your chosen item by its label in the answer.
Return: B
